The following compounds are shown together with reported growth at 0.1 µM values.
tested on: T47D; experiment: Cytotoxicity against human T47D cells assessed as cell growth at 0.1 uM after 48 hrs by sulforhodamine B assay relative to control; format: functional; details: read-out: Activity
metric_name: growth at 0.1 µM

INSERT INTO measurements (smiles_text, tested_system, metric_name, reported_value) VALUES
  ('COc1cc(-c2cc(/C=C/C(=O)c3ccc(N)cc3)[nH]n2)cc(OC)c1OC', 'T47D', 'growth at 0.1 µM', '85%'),
  ('COc1ccc(-c2cc(/C=C/C(=O)c3ccc(N)cc3)[nH]n2)cc1OC', 'T47D', 'growth at 0.1 µM', '90%'),
  ('COc1ccc(-c2cc(/C=C/C(=O)c3ccc(N)cc3)[nH]n2)cc1', 'T47D', 'growth at 0.1 µM', '87%'),
  ('COc1cc(-c2cc(/C=C/C(=O)c3ccc(F)c(F)c3)[nH]n2)cc(OC)c1OC', 'T47D', 'growth at 0.1 µM', '93%'),
  ('COc1ccc(C(=O)/C=C/c2cc(-c3ccc4c(c3)OCO4)n[nH]2)cc1OC', 'T47D', 'growth at 0.1 µM', '94%');
